target: Chaperone protein DnaK (Escherichia coli (strain K12)); experiment: binders of DnaK substrate-binding domain, biophysical, NMR, chaperone (AID 1033); conditions: Purified DnaK SBD, NMR ligand binding
Calls of active or inactive are those of the source. The rule behind the calls is not given here.
measuredEndpoint: Kd

Log: Chaperone protein DnaK (Escherichia coli (strain K12)), molecule `CC(C)(C)NC(=O)CN1C(=O)c2ccccc2S1(=O)=O` , Kd = > 4 mM (inactive)

Log: Chaperone protein DnaK (Escherichia coli (strain K12)), molecule `Nc1cc(-c2ccco2)[nH]n1` , Kd = > 4 mM (inactive)

Log: Chaperone protein DnaK (Escherichia coli (strain K12)), molecule COC(=O)CCC(C)C1CCC2C3CCC4C[C@H](O)CC[C@]4(C)C3C[C@H](O)[C@]12C (some centres undefined) , Kd = > 4 mM (inactive)

Log: Chaperone protein DnaK (Escherichia coli (strain K12)), molecule `CN(C)c1ccc2c(=O)[nH][nH]c(=O)c2c1` , Kd = > 4 mM (inactive)

Log: Chaperone protein DnaK (Escherichia coli (strain K12)), molecule `Cc1ccc(S(C)(=O)=O)s1` , Kd = > 4 mM (inactive)

Log: Chaperone protein DnaK (Escherichia coli (strain K12)), molecule `O=C(Cc1cccs1)Nc1ccon1` , Kd = > 4 mM (inactive)

Log: Chaperone protein DnaK (Escherichia coli (strain K12)), molecule `Cc1cc(C(=O)NC2=NCCS2)cs1` , Kd = > 4 mM (inactive)

Log: Chaperone protein DnaK (Escherichia coli (strain K12)), molecule `O=C(Nc1ccccc1)Nc1ccccc1` , Kd = > 4 mM (inactive)

Log: Chaperone protein DnaK (Escherichia coli (strain K12)), molecule `NCc1ccc2c(c1)OCCO2` , Kd = > 4 mM (inactive)

Log: Chaperone protein DnaK (Escherichia coli (strain K12)), molecule `Cc1cc(=O)n2[nH]c(C)cc2n1` , Kd = > 4 mM (inactive)

Log: Chaperone protein DnaK (Escherichia coli (strain K12)), molecule `O=C(Nc1ccon1)c1ccccc1Cl` , Kd = > 4 mM (inactive)

Log: Chaperone protein DnaK (Escherichia coli (strain K12)), molecule `Cc1ccc(C)c(S(=O)(=O)NCc2cccnc2)c1` , Kd = > 4 mM (inactive)

Log: Chaperone protein DnaK (Escherichia coli (strain K12)), molecule `CCn1cnc(C(=O)NC)c1C(=O)NC` , Kd = > 4 mM (inactive)

Log: Chaperone protein DnaK (Escherichia coli (strain K12)), molecule `S=c1nc(Cc2ccccc2)[nH][nH]1` , Kd = > 4 mM (inactive)

* * *

target: Chaperone protein DnaK (Escherichia coli (strain K12)) (UniProt P0A6Y8); test: binders of DnaK substrate-binding domain, biophysical, NMR, chaperone (AID 1033); settings: Purified DnaK SBD, NMR ligand binding
Sequence (P0A6Y8 whole entry, looked up, the tested form may be a part): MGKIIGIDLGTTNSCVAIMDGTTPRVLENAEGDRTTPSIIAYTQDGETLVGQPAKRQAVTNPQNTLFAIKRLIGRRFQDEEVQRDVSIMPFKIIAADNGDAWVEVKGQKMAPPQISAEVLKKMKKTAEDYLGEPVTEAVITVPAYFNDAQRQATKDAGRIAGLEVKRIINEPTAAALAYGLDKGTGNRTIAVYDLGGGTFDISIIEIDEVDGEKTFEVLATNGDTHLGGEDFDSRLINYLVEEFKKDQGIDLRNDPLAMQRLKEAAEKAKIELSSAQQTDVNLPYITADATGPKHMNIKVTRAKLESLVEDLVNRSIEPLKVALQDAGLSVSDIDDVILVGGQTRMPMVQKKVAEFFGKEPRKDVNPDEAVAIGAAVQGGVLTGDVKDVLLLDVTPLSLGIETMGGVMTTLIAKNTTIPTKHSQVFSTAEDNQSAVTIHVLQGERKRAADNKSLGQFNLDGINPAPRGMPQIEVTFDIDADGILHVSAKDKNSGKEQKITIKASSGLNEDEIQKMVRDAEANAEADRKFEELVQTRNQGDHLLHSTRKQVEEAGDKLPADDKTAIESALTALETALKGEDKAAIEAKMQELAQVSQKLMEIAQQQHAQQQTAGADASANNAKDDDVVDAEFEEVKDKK
Active and inactive are the calls of the source. No rule for the calls is given here.
measuredEndpoint: Kd

Entry CC(=O)NC(c1ccccc1)c1cccnc1 (stereo unspecified) — recorded Kd = > 4 mM (inactive)

Entry `CS(C)=C1C(=O)NC(=O)N(Cc2ccc(F)cc2)C1=O` — recorded Kd = > 4 mM (inactive)

Entry `O=C1c2ccccc2C(=O)N1CCc1ccccn1` — recorded Kd = > 4 mM (inactive)

Entry `O=C(O)c1cc(O)c(O)c(O)c1` — recorded Kd = > 4 mM (inactive)

Entry `O=C1NC(=O)/C(=C\c2ccncc2)S1` — recorded Kd = > 4 mM (inactive)

Entry `C[C@@H]1[C@H]2[C@H](O[C@@H]3O[C@H](CO)[C@@H](O)[C@H](O)[C@H]3O)OC=C(C(=O)O)[C@H]2C[C@@H]1O` — recorded Kd = > 4 mM (inactive)

* * *

target: Chaperone protein DnaK (Escherichia coli (strain K12)) (UniProt P0A6Y8); experiment: binders of DnaK substrate-binding domain, biophysical, NMR, chaperone (AID 1033); conditions: Purified DnaK SBD, NMR ligand binding
Calls of active or inactive are those of the source. No rule for the calls is given here.
Respond only with the outcome that fits, drawn from class 1 (active), class 0 (inactive)

Ask: Just curious, what result did `Cc1c(C(=O)Nc2ccccc2)sc(N)c1C(N)=O` get here?
Reply: class 0

Ask: Just curious, what result did `CC(=O)NC(NC(C)=O)c1ccccc1` get here?
Reply: class 0

Ask: Just curious, what result did `COc1ccc2c(c1)[n+](=O)c(C(C)=O)c(C)n2[O-]` get here?
Reply: class 0

Ask: Just curious, what result did `O=C(O)CNC(=O)c1ccc([N+](=O)[O-])cc1` get here?
Reply: class 0

Ask: Just curious, what result did `Cc1sc2nc(-c3ccco3)oc(=O)c2c1C` get here?
Reply: class 0

Ask: Just curious, what result did CC1=C(CCC(=O)O)c2cc3nc(cc4[nH]c(cc5[nH]c(cc1n2)c(C)c5C(C)O)c(C)c4C(C)O)C(C)=C3CCC(=O)O (configuration not stated) get here?
Reply: class 0

Ask: Just curious, what result did `NS(=O)(=O)c1ccc(N=Cc2cccs2)cc1` get here?
Reply: class 0

Ask: Just curious, what result did `Cc1cc(NC(=O)c2ocnc2C)no1` get here?
Reply: class 0

Ask: Just curious, what result did CC(=O)OC1CCC23C(=O)OC45CCC(C6=CC(=O)OC6)C4(C)CCC2C5CCC3(O)C1 (configuration not stated) get here?
Reply: class 0

Ask: Just curious, what result did `Cc1ccc2[nH]c3nc(=S)[nH]nc3c2c1` get here?
Reply: class 0

Ask: Just curious, what result did `O=C1CSC(=O)N1c1cccc(O)c1` get here?
Reply: class 0

Ask: Just curious, what result did `O=c1/c(=C/c2ccccc2F)sc2ncnn12` get here?
Reply: class 0

Ask: Just curious, what result did `NC(=O)C1CCN(C(=O)CN2CCc3ccccc32)CC1` get here?
Reply: class 0

Ask: Just curious, what result did `NC1=C(c2ccccc2)C(=O)c2ccccc21` get here?
Reply: class 0

Ask: Just curious, what result did `NC(=O)CCn1cnc2ccccc21` get here?
Reply: class 0

Ask: Just curious, what result did `O=C(Nc1ncc2ccccc2n1)c1cccs1` get here?
Reply: class 1

Ask: Just curious, what result did `OCc1ccc2c(c1)CCO2` get here?
Reply: class 0

Ask: Just curious, what result did `COc1ccccc1N1C(=N)SCC1=O` get here?
Reply: class 0

Ask: Just curious, what result did O=c1cccc2n1CC1CC2CN2CCCC[C@@H]12 (some centres not stated) get here?
Reply: class 0

Ask: Just curious, what result did `O=C1COc2cc(O)ccc21` get here?
Reply: class 0

Ask: Just curious, what result did `CCOC(=O)Cn1cnc2sc3c(c2c1=O)CCC3` get here?
Reply: class 0

Ask: Just curious, what result did `Cc1n[nH]c(=S)n(/N=C/c2cccs2)c1=O` get here?
Reply: class 0

Ask: Just curious, what result did `Nc1ccc2[nH]ccc2c1` get here?
Reply: class 0

Ask: Just curious, what result did `CON(C)C(=O)Nc1ccc(Cl)cc1` get here?
Reply: class 0

Ask: Just curious, what result did `c1cc(C(N2CCOCC2)N2CCOCC2)ccn1` get here?
Reply: class 0

Ask: Just curious, what result did `CC(=O)N(C)Cc1nc2ccccc2n1C` get here?
Reply: class 0

Ask: Just curious, what result did `CS(=O)(=O)c1ccc2nc(N)sc2c1` get here?
Reply: class 0

* * *

molecular target: Chaperone protein DnaK (Escherichia coli (strain K12)); assay: binders of DnaK substrate-binding domain, biophysical, NMR, chaperone (AID 1033); conditions: Purified DnaK SBD, NMR ligand binding
Active and inactive are the calls of the source. No rule for the calls is given here.
measuredEndpoint: Kd

Entry `CCC(=O)NC(=S)Nc1ccc(O)cc1` — recorded Kd = > 4 mM (inactive)

Entry `CCCSc1nnc2[nH]c(=O)cc(N)n12` — recorded Kd = > 4 mM (inactive)

Entry `CN1CCC(N(C)C2CCN(C)CC2)CC1` — recorded Kd = > 4 mM (inactive)

Entry `CCN1C(=O)c2c(C)nc3ccccc3c2C1=O` — recorded Kd = > 4 mM (inactive)

Entry `Cc1ccc(C(=O)N2CCC(C(=O)O)CC2)cc1` — recorded Kd = > 4 mM (inactive)

Entry CN1CCC(O)N1C(=O)c1ccccc1O (configuration not stated) — recorded Kd = > 4 mM (inactive)

Entry `CSc1ccccc1NC(=O)c1ccoc1C` — recorded Kd = > 4 mM (inactive)

Entry `CCOc1ccc(Cl)cc1S(=O)(=O)N1CCCC1` — recorded Kd = > 4 mM (inactive)

Entry `Cc1nn(-c2ccccc2)nc1C(N)=O` — recorded Kd = > 4 mM (inactive)

Entry `Cc1cc(C(=O)Nc2cccnc2)cs1` — recorded Kd = > 4 mM (inactive)

Entry `O=S(=O)(Cc1ccccc1Cl)Nc1ccccn1` — recorded Kd = > 4 mM (inactive)

Entry `C=C[C@H]1CN2CC[C@H]1C[C@@H]2[C@@H](O)c1ccnc2ccc(OC)cc12` — recorded Kd = > 4 mM (inactive)

Entry CC(N)C(=O)c1ccco1 (configuration not stated) — recorded Kd = > 4 mM (inactive)

Entry `CC(=O)Nc1ccc(NC(=O)/C=C\C(=O)O)cc1` — recorded Kd = > 4 mM (inactive)

Entry `NCc1c[nH]c2ccccc12` — recorded Kd = > 4 mM (inactive)

Entry `NC(=O)C1CCN(C(=S)Nc2ccccc2)CC1` — recorded Kd = > 4 mM (inactive)

Entry `NC(=O)c1cccc(N2C(=O)C=CC2=O)c1` — recorded Kd = > 4 mM (inactive)

Entry `O=C1CSC2=NCCCN12` — recorded Kd = > 4 mM (inactive)

Entry `C=C(C)[C@H]1CC=C(C(=O)O)CC1` — recorded Kd = > 4 mM (inactive)

Entry COc1ccc(NC(=O)C2CC(=O)N=C(N)S2)cc1 (configuration not stated) — recorded Kd = > 4 mM (inactive)

Entry `Cc1ccc(-c2nc(-c3cccnc3)no2)c(C)c1` — recorded Kd = > 4 mM (inactive)

Entry `Cc1cc(C(=O)O)n[nH]1` — recorded Kd = > 4 mM (inactive)

Entry `COc1ccc(-c2nnc(-c3ccc(N)cc3)o2)cc1` — recorded Kd = > 4 mM (inactive)

Entry `CC1(C)NC(=O)N(CCOc2ccc3c(c2)CCC3)C1=O` — recorded Kd = > 4 mM (inactive)

Entry `NC1=NN(c2ccccc2)C(=O)C1` — recorded Kd = > 4 mM (inactive)

Entry CCC(C)C(=O)OC1[C@@H]2CC3=C4CC(=O)O[C@@H](c5ccoc5)[C@]4(C)CCC3C(C)(C2=O)[C@@H](CC(=O)OC)C1(C)C (some centres not stated) — recorded Kd = > 4 mM (inactive)

Entry `Cc1cc(C)nc(/N=C(/N)Nc2cccc(F)c2)n1` — recorded Kd = > 4 mM (inactive)
